# experiment-description: Solubility of GL-II-73 in various media, shake flask method
# Format: physicochemical
# condition-notes: isopropanol, organic solvent or mixture, thermodynamic from solid
outcome-measure: solubility (mg/mL)
The figure you give is taken to be in mg/mL; do not add the unit.

q: Entry "C#Cc1ccc2c(c1)C(c1ccccc1F)=N[C@H](C)c1c(C(=O)N(C)C)ncn1-2" : reported solubility = ?
a: 131

###

# experiment-description: Solubility of GL-II-73 in various media, shake flask method
# Assay type: physicochemical
# condition-notes: methanol, organic solvent or mixture, thermodynamic from solid
outcome-measure: solubility

q: Could you tell me which solubility is on file for "C#Cc1ccc2c(c1)C(c1ccccc1F)=N[C@H](C)c1c(C(=O)N(C)C)ncn1-2" ?
a: > 1470 mg/mL

###

# experiment-description: Solubility of GL-II-73 in various media, shake flask method
# Assay type: physicochemical
# condition-notes: thermodynamic from solid; Water (pH 5.2)
outcome-measure: solubility (mg/mL)
Write it as a number; the unit mg/mL goes unstated.

q: Which solubility is reported for this compound? C#Cc1ccc2c(c1)C(c1ccccc1F)=N[C@H](C)c1c(C(=O)N(C)C)ncn1-2 [GL-II-73]
a: 1

###

# experiment-description: Solubility of GL-II-73 in various media, shake flask method
# Format: physicochemical
# condition-notes: simulated gastric fluid, thermodynamic from solid; 0.1 M HCl (pH 1.2)
outcome-measure: solubility (µg/mL)
Enter your answer as a number in µg/mL; do not include the unit.

q: Requested field: solubility. Item: C#Cc1ccc2c(c1)C(c1ccccc1F)=N[C@H](C)c1c(C(=O)N(C)C)ncn1-2 [GL-II-73]
a: 5370

Data provenance: paper PMC11944986
